All figures here come from PubChem BioAssay (NCI).

tested on: SK-MEL-2 melanoma; assay: NCI tumour cell line growth inhibition, 48 h
Reported log10(TGI) values for a set of compounds
Values below are the log10 of the recorded TGI, with µM as the unit.

* COc1cc2c(cc1OCCCCCn1c(-c3ccc(OCc4ccccc4)cc3)nc3cc(N4CCOCC4)ccc31)N=C[C@@H]1CCCN1C2=O | 0.48

IN: Returns the measured log10(TGI) for the input compound. Input: `CCOC(=O)/C=C(/C(=O)OCC)n1cc(C)c(=O)n(/C(=C/C(=O)OCC)C(=O)OCC)c1=O`
OUT: 1.52

---

test system: CCRF-CEM leukemia; test: NCI tumour cell line growth inhibition, 48 h
Attribute Measured: TGI

• CN(C)c1cc[n+](/C(NS(=O)(=O)c2cc(C(=O)Nc3ccc(Cl)cc3)c(Cl)cc2[S-])=C(\C#N)C(=O)c2ccccc2)cc1 = > 100 µM
• O=C(CSc1nnc(SCC(=O)NN=C2CCCCC2)s1)NN=C1CCCCC1 = > 100 µM
• CC(C)(Cl)C(Br)CCC(C)(Br)C(Br)CBr (stereo not given) = 28.7 µM
• COc1cccc2c1N[S@](=O)S2 = > 100 µM

With those in mind, consider the next molecule.
IN: Give the reported TGI for `Clc1ccc(OCc2nn3c(CCCCc4nnc5sc(COc6ccc(Cl)cc6Cl)nn45)nnc3s2)c(Cl)c1` (system: CCRF-CEM leukemia).
OUT: > 100 µM

---

tested on: SF-539 CNS; assay: NCI tumour cell line growth inhibition, 48 h
Attribute Measured: TGI

// known answers, use as guide
* O=C1Nc2ccccc2/C1=C\c1c(Cl)nc2sccn12 | > 43.3 µM
* CCn1cc(C(=O)O)c(=O)c2cc(F)c(N3CCN(CN4C(=O)/C(=N\c5ncc(Cc6cc(OC)c(OC)c(OC)c6)c(N)n5)c5cc(Cl)ccc54)CC3)cc21 | > 100 µM
* O=C1C(Cl)=C(Cl)C(=O)C2=C1C1c3ccccc3C2c2ccccc21 | 65.9 µM
* Cc1cc(=O)oc2cc(OCc3nc4ccccc4c(=O)n3-c3ccccc3)ccc12 | > 100 µM
* Cc1ccc(C(=O)O)cc1NC(=O)c1cc(/C=C/c2ccccc2)[nH]c(=S)n1 | > 100 µM
* CC1CCC2(OCCO2)[C@]2(C)CC(O)C(=O)C=C12 (some centres not stated) | > 100 µM

With those in mind, consider the next molecule.
IN: Returns the measured TGI for the input molecule. Input: CC(=O)NCCC1CNc2ccccc21 (configuration not stated)
OUT: > 100 µM

---

tested on: LOX IMVI melanoma; test: NCI tumour cell line growth inhibition, 48 h
Reported GI50 values for a set of molecules

// known answers, use as guide
* COc1cc(/C=C/c2cc(/C=C/c3ccc(O)c(OC)c3)n(-c3c(Cl)cccc3Cl)c(=O)n2)ccc1O | 1.68 µM
* COC(=O)[C@@H](C)C[C@H](Cc1ccc2ccccc2c1)NC(=O)c1csc([C@@H](C[C@H](C(C)C)N(C)C(=O)[C@@H](NC(=O)[C@H]2CCCCN2C)C(C)C)OC(C)=O)n1 | 0.013 µM
* COc1ccc(CC(C)=C(c2ccc(OCCN3CCCCCC3)cc2)c2ccc(OCCN3CCCCCC3)cc2)cc1 | 0.0875 µM
* NCCCOc1cc2ccccc2cc1C(=O)NCCOc1nc2ccccc2cc1C(=O)Nc1ccc(Cl)cc1O | 1.07 µM
* O=C(COc1nc2ccccc2nc1-c1ccccc1)Nc1ccc(Cl)cc1 | 15.7 µM

With those in mind, consider the next molecule.
IN: Returns the measured GI50 for the input molecule. Input: `CN(C)c1cc[n+](/C(NS(=O)(=O)c2cc(C(=O)Nc3ccc(Cl)cc3)c(Cl)cc2[S-])=C(\C#N)C(=O)c2ccccc2)cc1`
OUT: 49.7 µM
